target: Adenosine receptor A2b (Homo sapiens, UniProt P29275); assay: Displacement of [3H]DPCPX from human Adenosine A2B receptor expressed in HEK293 cells; range 140-186; type: cell-based
Sequence (P29275 whole entry): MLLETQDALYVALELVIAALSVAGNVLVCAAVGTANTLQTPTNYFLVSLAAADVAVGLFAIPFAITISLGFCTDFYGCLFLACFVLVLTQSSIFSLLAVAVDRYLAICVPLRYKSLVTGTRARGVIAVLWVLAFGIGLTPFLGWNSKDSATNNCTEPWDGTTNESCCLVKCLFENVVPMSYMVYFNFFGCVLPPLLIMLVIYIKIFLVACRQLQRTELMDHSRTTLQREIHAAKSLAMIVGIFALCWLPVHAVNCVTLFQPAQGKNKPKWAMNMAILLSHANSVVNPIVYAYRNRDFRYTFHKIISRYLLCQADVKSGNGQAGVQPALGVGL
PROPERTY: pKi
// field semantics: pKi = negative decimal log of concentration (mol/L)

Input `CCCn1cc2c(nc(NC(=O)Nc3ccc(F)cc3)n3nc(-c4ccco4)nc23)n1` . Output pKi: 6.79

* * *

biological target: UniProtKB P29274; assay: Displacement of [3H]SCH-58261 from human Adenosine A2A receptor expressed in HEK293 cells; range 40-96; assay type: cell-based
PROPERTY: pKi
// field semantics: pKi = negative decimal log of concentration (mol/L)

Input `CCCn1cc2c(nc(NC(=O)Nc3ccccc3)n3nc(-c4ccco4)nc23)n1` . Output pKi: 7.21

* * *

Target: Adenosine receptor A3 (Homo sapiens)
Sequence (P0DMS8 whole entry): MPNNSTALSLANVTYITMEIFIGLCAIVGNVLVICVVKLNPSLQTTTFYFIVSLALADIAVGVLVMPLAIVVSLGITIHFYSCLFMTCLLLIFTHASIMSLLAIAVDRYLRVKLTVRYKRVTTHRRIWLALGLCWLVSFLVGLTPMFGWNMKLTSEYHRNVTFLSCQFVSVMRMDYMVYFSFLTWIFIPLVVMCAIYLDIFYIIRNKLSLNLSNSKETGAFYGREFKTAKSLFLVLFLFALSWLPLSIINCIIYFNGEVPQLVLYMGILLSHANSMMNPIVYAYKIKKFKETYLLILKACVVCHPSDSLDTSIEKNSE
Assay: Inhibition of IB-MECA agonist-mediated cAMP production in CHO cell membranes expressing human Adenosine A3 receptor; range 130-279
Format: functional, cell-based
PROPERTY: IC50
Don't forget the unit after the number, please.

Input `Cn1cc2c(nc(NC(=O)Nc3ccc(S(=O)(=O)O)cc3)n3nc(-c4ccco4)nc23)n1` . Output IC50: 0.19 µM

* * *

target: Adenosine receptor A2a (Homo sapiens); assay: Displacement of [3H]SCH-58261 from human Adenosine A2A receptor expressed in HEK293 cells; range 123-162; type: cell-based
PROPERTY: Ki (nM)
Provide the reading as a plain figure in nM.

Input `CCCn1cc2c(nc(NC(=O)Nc3ccc(Cl)cc3)n3nc(-c4ccco4)nc23)n1` . Output Ki: 140

* * *

target: Adenosine receptor A3 (Homo sapiens); experiment: Displacement of [3H]MRE3008-F20 from human Adenosine A3 receptor expressed in HEK cells; range 0.11-0.18; format: cell-based, HEK293
PROPERTY: pKi
// field semantics: pKi = negative decimal log of concentration (mol/L)

Input `CCn1cc2c(nc(NC(=O)Nc3ccc(C)cc3)n3nc(-c4ccco4)nc23)n1` . Output pKi: 9.85

* * *

biological target: Adenosine receptor A2a (Homo sapiens, UniProt P29274); experiment: Displacement of [3H]SCH-58261 from human Adenosine A2A receptor expressed in HEK293 cells; range 332-426; format: cell-based
Sequence (P29274 whole entry): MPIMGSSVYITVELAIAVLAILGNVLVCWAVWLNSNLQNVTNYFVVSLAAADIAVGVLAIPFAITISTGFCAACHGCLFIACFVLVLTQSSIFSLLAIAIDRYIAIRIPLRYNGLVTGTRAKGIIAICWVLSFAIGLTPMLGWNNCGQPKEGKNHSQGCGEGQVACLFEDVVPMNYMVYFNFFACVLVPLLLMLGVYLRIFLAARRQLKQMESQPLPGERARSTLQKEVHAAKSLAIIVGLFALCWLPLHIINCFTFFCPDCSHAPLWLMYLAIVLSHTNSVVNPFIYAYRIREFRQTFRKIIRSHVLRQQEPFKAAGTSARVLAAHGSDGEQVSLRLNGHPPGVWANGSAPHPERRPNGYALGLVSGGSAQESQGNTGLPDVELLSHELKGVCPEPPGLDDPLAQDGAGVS
PROPERTY: pKi
// field semantics: pKi = negative decimal log of concentration (mol/L)

Input `CCCCn1cc2c(nc(NC(=O)Nc3ccc4c(c3)OCO4)n3nc(-c4ccco4)nc23)n1` . Output pKi: 6.42

* * *

biological target: Adenosine receptor A3 (Homo sapiens); assay: Displacement of [3H]MRE3008-F20 from human Adenosine A3 receptor expressed in HEK cells; range 3.05-3.78; assay type: cell-based, HEK293
PROPERTY: Ki (nM)
Provide the reading as a plain figure in nM.

Input `Cn1cc2c(nc(NC(=O)Nc3ccc(Cl)c(Cl)c3)n3nc(-c4ccco4)nc23)n1` . Output Ki: 3.4

* * *

target: Adenosine receptor A2b (Homo sapiens); assay: Displacement of [3H]-DPCPX from human Adenosine A2B receptor expressed in HEK293 cells; range 125-218; assay type: cell-based
PROPERTY: Ki (nM)
Provide the reading as a plain figure in nM.

Input `CCCn1cc2c(nc(NC(=O)Nc3ccccc3OC)n3nc(-c4ccco4)nc23)n1` . Output Ki: 165

* * *

molecular target: Adenosine receptor A1 (Homo sapiens, UniProt P30542); assay: biochemical
Sequence (P30542 whole entry): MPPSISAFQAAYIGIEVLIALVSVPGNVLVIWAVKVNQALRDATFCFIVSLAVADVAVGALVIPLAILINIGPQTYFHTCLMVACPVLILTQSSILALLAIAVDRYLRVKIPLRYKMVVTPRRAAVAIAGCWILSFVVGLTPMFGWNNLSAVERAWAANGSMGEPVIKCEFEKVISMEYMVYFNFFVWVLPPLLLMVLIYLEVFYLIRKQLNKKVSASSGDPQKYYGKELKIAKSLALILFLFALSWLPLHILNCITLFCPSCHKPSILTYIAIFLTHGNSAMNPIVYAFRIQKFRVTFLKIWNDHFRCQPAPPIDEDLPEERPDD
Description: Displacement of [3H]-DPCPX from human Adenosine A1 receptor expressed in CHO cells; range 436-810
PROPERTY: Ki (nM)
Provide the reading as a plain figure in nM.

Input `Cn1cc2c(nc(NC(=O)Nc3ccccc3)n3nc(-c4ccco4)nc23)n1` . Output Ki: 594

* * *

target: UniProtKB P0DMS8; test: Displacement of [3H]MRE3008-F20 from human Adenosine A3 receptor expressed in HEK cells; range 0.61-0.84; assay type: cell-based, HEK293
PROPERTY: Ki (nM)
Provide the reading as a plain figure in nM.

Input `CCCCn1cc2c(nc(NC(=O)Nc3ccc(C(F)(F)F)cc3)n3nc(-c4ccco4)nc23)n1` . Output Ki: 0.72

* * *

target: Adenosine receptor A3 (Homo sapiens); test: biochemical
Description: Displacement of [3]-MRE-3008F20 from human Adenosine A3 receptor expressed in CHO cells (95% confidence limits)
PROPERTY: Ki (nM)
Provide the reading as a plain figure in nM.

Input `CCn1cc2c(nc(NC(=O)Cc3ccccc3)n3nc(-c4ccco4)nc23)n1` . Output Ki: 1.03

* * *

target: Adenosine receptor A2a (Homo sapiens, UniProt P29274); assay: Displacement of [3H]SCH-58261 from human Adenosine A2A receptor expressed in HEK293 cells; range 255-366; type: cell-based
PROPERTY: pKi
// field semantics: pKi = negative decimal log of concentration (mol/L)

Input `CCCn1cc2c(nc(NC(=O)Cc3ccccc3)n3nc(-c4ccco4)nc23)n1` . Output pKi: 6.51

* * *

target: Adenosine receptor A2a (Homo sapiens, UniProt P29274); assay: Displacement of [3H]SCH-58261 from human Adenosine A2A receptor expressed in HEK293 cells; range 30-54; assay type: cell-based
PROPERTY: Ki (nM)
Provide the reading as a plain figure in nM.

The observed Ki for `CCn1cc2c(nc(NC(=O)Nc3ccc(Br)cc3)n3nc(-c4ccco4)nc23)n1` when tested with Adenosine receptor A2a (Homo sapiens, UniProt P29274) stands at 40

* * *

biological target: Adenosine receptor A2b (Homo sapiens, UniProt P29275); assay: Displacement of [3H]DPCPX from human Adenosine A2B receptor expressed in HEK293 cells; range 235-347; assay type: cell-based
PROPERTY: pKi
// field semantics: pKi = negative decimal log of concentration (mol/L)

Input `Cn1cc2c(nc(NC(=O)Nc3ccc(C(F)(F)F)cc3)n3nc(-c4ccco4)nc23)n1` . Output pKi: 6.54

* * *

molecular target: Adenosine receptor A1 (Homo sapiens); test: Displacement of [3H]DPCPX from human Adenosine A1 receptor expressed in CHO cells; range 330-478; format: cell-based
PROPERTY: Ki (nM)
Provide the reading as a plain figure in nM.

The observed Ki for `CCCn1cc2c(nc(NC(=O)Nc3ccc(C(F)(F)F)cc3)n3nc(-c4ccco4)nc23)n1` when tested with Adenosine receptor A1 (Homo sapiens) stands at 400

* * *

biological target: Adenosine receptor A3 (Homo sapiens, UniProt P0DMS8); test: Displacement of [3H]MRE3008-F20 from human Adenosine A3 receptor expressed in HEK cells; range 0.71-0.91; assay type: cell-based, HEK293
PROPERTY: Ki (pM)
Provide the reading as a plain figure in pM.

The observed Ki for `COc1cccc(NC(=O)Nc2nc3nn(C)cc3c3nc(-c4ccco4)nn23)c1` when tested with Adenosine receptor A3 (Homo sapiens, UniProt P0DMS8) stands at 800

* * *

molecular target: Adenosine receptor A2b (Homo sapiens, UniProt P29275); assay: Displacement of [3H]DPCPX from human Adenosine A2B receptor expressed in HEK293 cells; range 67-141; format: cell-based
PROPERTY: pKi
// field semantics: pKi = negative decimal log of concentration (mol/L)

Input `CCn1cc2c(nc(NC(=O)Nc3ccccc3Cl)n3nc(-c4ccco4)nc23)n1` . Output pKi: 7.01

* * *

Target: Adenosine receptor A3 (Homo sapiens, UniProt P0DMS8)
Sequence (P0DMS8 whole entry): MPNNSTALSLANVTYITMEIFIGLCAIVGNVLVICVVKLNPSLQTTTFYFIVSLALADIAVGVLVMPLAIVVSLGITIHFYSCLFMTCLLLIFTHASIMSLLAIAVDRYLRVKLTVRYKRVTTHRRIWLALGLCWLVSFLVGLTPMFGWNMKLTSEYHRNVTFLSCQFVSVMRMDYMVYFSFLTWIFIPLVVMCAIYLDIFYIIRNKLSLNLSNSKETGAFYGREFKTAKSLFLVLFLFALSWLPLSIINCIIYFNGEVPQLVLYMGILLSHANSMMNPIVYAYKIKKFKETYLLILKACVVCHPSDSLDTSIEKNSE
Assay: Displacement of specific [3H]MRE3008-F20 binding at human Adenosine A3 receptor expressed in HEK cells; value ranges from 39-55
Assay type: cell-based, HEK293
PROPERTY: pKi
// field semantics: pKi = negative decimal log of concentration (mol/L)

Input `CCCCn1cc2c(nc(NC(=O)Nc3ccc(S(=O)(=O)O)cc3)n3nc(-c4ccco4)nc23)n1` . Output pKi: 7.33
